# Test system: SK-N-SH
# assay-remarks: Antiproliferative activity against human SK-N-SH cells after 48 hrs by MTT assay
# Format: functional, cell-based
pIC50: −log10 of the molar value.
Measured pIC50 by item

smiles-code	result-qualifier	pIC50
Cc1oc2c3c(ccc2c(=O)c1C)OC[C@H]1[C@@H]3CC(=O)OC1(C)C	<	4.00
Cc1oc2c3c(ccc2c(=O)c1-c1ccccc1)OC[C@H]1[C@@H]3C2=C(CC(C)(C)CC2=O)OC1(C)C	<	4.00
Cc1oc2c3c(ccc2c(=O)c1C)OC[C@H]1[C@@H]3C2=C(CC(C)(C)CC2=O)OC1(C)C	<	4.00
CCOC(=O)C1=C(C)OC(C)(C)[C@H]2COc3ccc4c(=O)c(C)c(C)oc4c3[C@@H]12	=	4.96
CC(=O)C1=C(C)OC(C)(C)[C@H]2COc3ccc4c(=O)c(C)c(C)oc4c3[C@@H]12	=	4.97
Cc1nn(-c2ccccc2)c2c1[C@@H]1c3c(ccc4c(=O)c(C)c(C)oc34)OC[C@@H]1C(C)(C)O2	=	4.98
Cc1oc2c3c(ccc2c(=O)c1-c1ccccc1)OC[C@H]1[C@@H]3c2c(n(C)c(=O)n(C)c2=O)OC1(C)C	=	4.98
Cc1oc2c3c(ccc2c(=O)c1C)OC[C@H]1[C@@H]3c2c(c3ccccc3oc2=O)OC1(C)C	=	5.98
Cc1nn(-c2ccccc2)c2c1[C@@H]1c3c(ccc4c(=O)c(-c5ccccc5)c(C)oc34)OC[C@@H]1C(C)(C)O2	<	4.00
Cc1oc2c3c(ccc2c(=O)c1C)OC[C@H]1[C@@H]3C2=C(CCCC2=O)OC1(C)C	<	4.00
Cc1coc2c3c(ccc2c1=O)OC[C@H]1[C@@H]3C2=C(CCCC2=O)OC1(C)C	<	4.00
Cc1coc2c3c(ccc2c1=O)OC[C@H]1[C@@H]3CC(=O)OC1(C)C	<	4.00
Cc1oc2c3c(ccc2c(=O)c1-c1ccccc1)OC[C@H]1[C@@H]3C2=C(CCCC2=O)OC1(C)C	<	4.00
Cc1coc2c3c(ccc2c1=O)OC[C@H]1[C@@H]3C2=C(CC(C)(C)CC2=O)OC1(C)C	<	4.00
Cc1oc2c3c(ccc2c(=O)c1C)OC[C@H]1[C@@H]3c2c(n(C)c(=O)n(C)c2=O)OC1(C)C	=	5.97

###

# Test system: A549
# assay-remarks: Antiproliferative activity against human A549 cells after 48 hrs by MTT assay
# Format: functional, cell-based
# experimental-setup: A549, 48 h
quantity-name: IC50

smiles-code	readout-value
Cc1oc2c3c(ccc2c(=O)c1-c1ccccc1)OC[C@H]1[C@@H]3c2c(n(C)c(=O)n(C)c2=O)OC1(C)C	> 100 µM
Cc1oc2c3c(ccc2c(=O)c1C)OC[C@H]1[C@@H]3c2c(n(C)c(=O)n(C)c2=O)OC1(C)C	0.1 µM
Cc1coc2c3c(ccc2c1=O)OC[C@H]1[C@@H]3CC(=O)OC1(C)C	11.2 µM
Cc1coc2c3c(ccc2c1=O)OC[C@H]1[C@@H]3C2=C(CCCC2=O)OC1(C)C	> 100 µM
Cc1oc2c3c(ccc2c(=O)c1C)OC[C@H]1[C@@H]3c2c(c3ccccc3oc2=O)OC1(C)C	0.1 µM
Cc1oc2c3c(ccc2c(=O)c1C)OC[C@H]1[C@@H]3C2=C(CCCC2=O)OC1(C)C	> 100 µM
Cc1oc2c3c(ccc2c(=O)c1-c1ccccc1)OC[C@H]1[C@@H]3C2=C(CCCC2=O)OC1(C)C	> 100 µM
Cc1nn(-c2ccccc2)c2c1[C@@H]1c3c(ccc4c(=O)c(C)c(C)oc34)OC[C@@H]1C(C)(C)O2	> 100 µM
Cc1oc2c3c(ccc2c(=O)c1C)OC[C@H]1[C@@H]3CC(=O)OC1(C)C	0.09 µM
Cc1oc2c3c(ccc2c(=O)c1C)OC[C@H]1[C@@H]3C2=C(CC(C)(C)CC2=O)OC1(C)C	> 100 µM
Cc1nn(-c2ccccc2)c2c1[C@@H]1c3c(ccc4c(=O)c(-c5ccccc5)c(C)oc34)OC[C@@H]1C(C)(C)O2	> 100 µM
CC(=O)C1=C(C)OC(C)(C)[C@H]2COc3ccc4c(=O)c(C)c(C)oc4c3[C@@H]12	> 100 µM
Cc1coc2c3c(ccc2c1=O)OC[C@H]1[C@@H]3C2=C(CC(C)(C)CC2=O)OC1(C)C	> 100 µM
CCOC(=O)C1=C(C)OC(C)(C)[C@H]2COc3ccc4c(=O)c(C)c(C)oc4c3[C@@H]12	10.9 µM
Cc1oc2c3c(ccc2c(=O)c1-c1ccccc1)OC[C@H]1[C@@H]3C2=C(CC(C)(C)CC2=O)OC1(C)C	> 100 µM

meta.source: ChEMBL document CHEMBL3217436
